- systemName: T1, FcRL6, overexpressed on 3T3 cells (UniProt Q6DN72 20-434, limits assumed)
- T1 construct: whole, on cells
- T1 sequence (looked up): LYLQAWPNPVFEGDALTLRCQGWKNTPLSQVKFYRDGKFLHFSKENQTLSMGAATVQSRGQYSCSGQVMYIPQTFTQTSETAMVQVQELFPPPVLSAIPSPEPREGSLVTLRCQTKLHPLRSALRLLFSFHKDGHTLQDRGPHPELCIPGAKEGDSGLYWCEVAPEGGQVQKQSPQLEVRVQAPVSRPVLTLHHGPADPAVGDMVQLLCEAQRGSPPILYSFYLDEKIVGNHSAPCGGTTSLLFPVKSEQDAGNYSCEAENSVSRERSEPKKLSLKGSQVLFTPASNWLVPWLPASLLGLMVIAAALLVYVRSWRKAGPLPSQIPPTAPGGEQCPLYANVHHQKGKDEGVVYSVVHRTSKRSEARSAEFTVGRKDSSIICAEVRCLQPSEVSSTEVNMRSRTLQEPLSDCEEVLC
- experimentDescription: phage clone on 3T3-FcRL6 cells
readoutKind: binding result

1) ET200-026 (scFv, screened as phage clone; entry is VL-linker-VH-His tag-HA tag) scFv: NFMLTQPHSVSESPGKTVTISCTGSSGSIASNYVQWYQQRPGSAPTTVIYEDNQRPSGVPDRFSGSIDSSSNSASLTISGLKTEDEADYYCQSYDSSNWVFGGGTKLTVLGSRGGGGSGGGGSGGGGSLEMAEVQLVQSGAEVKKPGSSVKVSCKASGGTFSSYAISWVRQAPGQGLEWMGGIIPIFGTANYAQKFQGRVTITADESTSTAYMELSSLRSEDTAVYYCARNNHYYNDYWGQGTLVTVSSTSGQAGQHHHHHHGAYPYDVPDYAS : no binding
2) ET200-100 (scFv, screened as phage clone; entry is VL-linker-VH-His tag-HA tag) scFv: NFMLTQPHSVSESPGKTVTISCTRSSGSIASNFVQWYQQRPGSAPTPMIYEDNNRPPGVPDRFSASVDSSSNSASLTISGLKTEDEADYYCQSYDTSNVVFGGGTKLTVLGSRGGGGSGGGGSGGGGSLEMAEVQLVESGGGLVQPGGSLRLSCAASGFTFSSYEMNWVRQAPGKGLEWVSYISSSGSTIYYADSVKGRFTISRDNAKNSLYLQMNSLRAEDTAVYYCARWDYGMDVWGQGTTVTVSSTSGQAGQHHHHHHGAYPYDVPDYAS : no binding
